Each item that follows carries a reported Cmax.
- ASSAY_REMARKS: In vivo pharmacokinetics
- Design: species or system Sprague-Dawley rats
- CONDITION_SUMMARY: both sexes, Sprague-Dawley; rat, PO (oral gavage), dose-corrected plasma Cmax; read-out: CMAX PO

Worked examples, 4 compounds total:
CCC(C)CN1CC2N(C(=O)c3ccc(F)cc3)CCC(=O)N2C(C)C1=O (stereo not shown): 100 to 999 ng/mL
CCC(C)CN1CC2N(C(=O)c3ccc(OC(F)F)cc3)CCC(=O)N2[C@@H](C)C1=O (stereo partly shown): 100 to 999 ng/mL
CCC(C)CN1CC2N(Cc3ccc(OC(F)F)cc3)CCC(=O)N2[C@@H](C)C1=O (stereo partly shown): 1 to 100 ng/mL
CCC(C)CN1CC2N(C(=O)c3ccc(C(F)(F)F)cc3)CCC(=O)N2[C@@H](C)C1=O (stereo partly shown): 1 to 100 ng/mL

Request: Give the measured Cmax of CCC(C)CN1CC2N(Cc3ccc(C(F)(F)F)cc3)CCC(=O)N2[C@@H](C)C1=O (stereo partly shown) .
Response: 1 to 100 ng/mL

###

- ASSAY_REMARKS: Non-specific protein binding (rapid equilibrium dialysis)
- Format: in vitro ADME, Sprague-Dawley rats
- CONDITION_SUMMARY: both sexes, Sprague-Dawley; rat blood plasma, RED device, 4-hour incubation at 37° C.; read-out: Unbound Fraction Plasma
TEST_READOUT: fraction unbound at 4 h

CC1C(=O)N(CCC2CCC2)CC2N(C(=O)c3ccc(C(F)(F)F)cc3)CCC(=O)N12 (stereo not shown): 0.1 to 0.5

Request: Give the measured fraction unbound at 4 h of CCC(C)CN1CC2N(C(=O)c3ccc(F)cc3)CCC(=O)N2C(C)C1=O (stereo not shown) .
Response: < 0.1

Request: Give the measured fraction unbound at 4 h of CCC(C)CN1CC2N(C(=O)c3ccc(OC(F)F)cc3)CCC(=O)N2[C@@H](C)C1=O (stereo partly shown) .
Response: 0.5 to 0.9

Request: Give the measured fraction unbound at 4 h of C=CCCN1CC2N(C(=O)c3ccc(C(F)(F)F)cc3)CCC(=O)N2C(C)C1=O (stereo not shown) .
Response: 0.1 to 0.5

Request: Give the measured fraction unbound at 4 h of CCC(C)CN1CC2N(C(=O)c3ccc(C(F)(F)F)cc3)CCC(=O)N2[C@@H](C)C1=O (stereo partly shown) .
Response: 0.5 to 0.9

Request: Give the measured fraction unbound at 4 h of CCC(C)CN1CC2N(Cc3ccc(C(F)(F)F)cc3)CCC(=O)N2[C@@H](C)C1=O (stereo partly shown) .
Response: < 0.1

Request: Give the measured fraction unbound at 4 h of CCC(C)CN1CC2N(Cc3ccc(O)nc3)CCC(=O)N2[C@@H](C)C1=O (stereo partly shown) .
Response: > 0.9

Request: Give the measured fraction unbound at 4 h of CCC(C)CN1CC2N(Cc3ccc(OC(F)F)cc3)CCC(=O)N2[C@@H](C)C1=O (stereo partly shown) .
Response: 0.1 to 0.5

Request: Give the measured fraction unbound at 4 h of CC1C(=O)N(CC2CCC2)CC2N(C(=O)c3ccc(OC(F)F)cc3)CCC(=O)N12 (stereo not shown) .
Response: 0.1 to 0.5

Request: Give the measured fraction unbound at 4 h of CCC(C)CN1CC2N(C(=O)c3ccc(C(F)(F)F)c(Cl)c3)CCC(=O)N2C(C)C1=O (stereo not shown) .
Response: 0.1 to 0.5

Source of measurements: patent US20240025903A1
